Reference source: patent US20210253725A1

# target-of-assay: T1, CD27 protein (His-tagged, Sino Biological Inc. 10039-H08B1) (human, UniProt P26842 20-192)
# T1 construct: bought; coated onto ELISA plates; also called human CD27; recombinant protein; not shown: His tag
# T1 sequence (looked up): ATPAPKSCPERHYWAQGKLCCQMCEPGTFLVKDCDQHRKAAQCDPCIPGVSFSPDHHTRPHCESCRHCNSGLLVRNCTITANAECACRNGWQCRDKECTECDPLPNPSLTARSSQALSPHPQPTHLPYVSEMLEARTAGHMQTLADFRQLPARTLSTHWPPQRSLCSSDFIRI
# measurement-description: ELISA on coated His-tagged CD27; also: test concentration or dose not given here
Consider the following binders and their measured ELISA [abs. corr.] readings.
Numbers only; they are read as abs. corr..

Query :: Name the reported ELISA [abs. corr.] value associated with the binder P018.S.01.A.H06 (antibody, V domains shown, V regions on human Ig constant parts; also called AB27_26) VH: QEQLKESGGRLVKPDETLTITCTASGFSLSRYDMSWVRQAPGKGLEWIGSIWSDGDTDYANWAKGRFTISKTSTTVDLKITSPTTEDTATYFCARGYTAWSLWGPGTLVTVSS VL: ALVMTQTPSPVSAAVGGTVTISCQSSESVVGNNALSWFQQKPGQPPKLLNYQASTLASGVSSRFSGSGSGTQFTLTISGVQSDDAATYYCQGTYYSSGWYFAFGGGTEVVVK
Result :: 3.44

Query :: Item: P018.S.07.A.B06 (antibody, V domains shown, V regions on human Ig constant parts; also called AB27_118) VH: QEQLVESGGDLVKPGTSLTLTCKASGLDFSSTPYMCWVRQAPGKGLEWIACIYTGSVIYTYYASWAKDRFTISKISSTSVTLQMTSLTVADTATYFCARSPAGYAAYGYGGFNLWGPGTLVTVSS VL: AIEMTQTPFSVSAAVGGTVTINCQASQNIYNNLAWYQQKPGQPPKLLIYGASTLESGVPSRFEGSGSGTEYTLTISDLESDDAATYYCQSAYYSSSATDMAFGGGTEVVVK
Result :: 3.35

Query :: Item: P018.S.03.A.H03 (antibody, V domains shown, V regions on human Ig constant parts; also called AB27_61) VH: QSLEESGGDLVKPEGSLTLTCTASGLDFSSSYWICWVRQAPGKGLEWIACIHAGSSGTTHYATWAKGRFTISKTSSTTVTLQMTSLTAADTATYFCARGAVYGGGSYDNFNLWGPGTLVTVSS VL: AYDMTQTPASVEVAVGGTVTIKCQASQSIGTYLSWYQQKPGQPPKLLIYAASTLASGVQPRFKGSGSGTQFTLTISGVQSDDAATYYCQQGYSADNVANSFGGGTEVVVK
Result :: 3.15

Query :: Item: P018.S.07.A.F04 (antibody, V domains shown, V regions on human Ig constant parts; also called AB27_128) VH: QSLEESGGRLVTPGTPLTLTCTVSGFSLSSHAMSWVRQAPGKGLEYIGIIDTDASASYASWAKGRFTISRTSTTVDLKITSPTTEDTATYFCARDGGYTDYSYYAMDLWGPGTLVTVSS VL: DIVMTQTPASVEAAVGGTVTIKCQASETIYVNLAWYQQKPGQPPKLLIYRASTLASGVSSRFKGSGSGTEFTLTISDVKSVDAATYYCHQAYRRSDVGNIFGGGTEVVVK
Result :: 3.35

Query :: Item: P018.S.09.A.A05 (antibody, V domains shown, V regions on human Ig constant parts; also called AB27_145) VH: QSVEESGGRLVTPGTPLTLTCTVSGFSLSSYAMSWVRQAPGKGLEWIGYIWSGGTTDYASWAKGRFTISKTSTTVDLKITDPTTEDTATYFCARGLGDRGSSDYYMPLKLWGQGTLVTVSS VL: AAVLTQTPSPVSAAVGGTVTINCQASEDIESYLAWYQQKPGQPPKLLIYSTSNLASGVSSRFRGSGSGTQLTLTISDLESADAATYYCQCTYDGSSAVWGAFGGGTEVVVK
Result :: 3.17
